# Tested on: human GLP-1 receptor (human, UniProt P43220)
# Sequence (P43220 24-463): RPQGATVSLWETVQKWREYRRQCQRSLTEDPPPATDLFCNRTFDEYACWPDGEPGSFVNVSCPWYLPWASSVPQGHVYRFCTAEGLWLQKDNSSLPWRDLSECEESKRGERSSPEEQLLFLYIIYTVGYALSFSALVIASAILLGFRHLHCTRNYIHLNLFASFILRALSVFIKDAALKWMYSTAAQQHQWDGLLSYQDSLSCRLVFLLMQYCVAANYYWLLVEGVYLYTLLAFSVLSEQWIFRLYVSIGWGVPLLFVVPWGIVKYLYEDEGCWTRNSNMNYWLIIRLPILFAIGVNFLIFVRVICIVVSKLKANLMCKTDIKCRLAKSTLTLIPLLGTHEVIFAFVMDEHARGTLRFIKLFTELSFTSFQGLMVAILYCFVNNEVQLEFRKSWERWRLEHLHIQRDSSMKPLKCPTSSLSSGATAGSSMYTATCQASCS
*1 amine or outer side, *2 acyl side, *3 side chain or, on linkers, in order; H or OH if unused. Where no end group is shown, it is not given here. Side-chain parts run from the residue outwards. [ ]: non-standard residue; d: D form. The star is where a group is joined. Decanoyl(10-(4-HOOC-PhO)) = O=C(O)c1ccc(OCCCCCCCCCC(=O)*)cc1; Decanoyl(10-O(3-COOH-Ph)) = O=C(O)c1cccc(OCCCCCCCCCC(=O)*)c1; γGlu = O=C(O)[C@H](CCC(=O)[*:2])N[*:1]; C14 diacid = O=C(O)CCCCCCCCCCCCC(=O)*; AEEA = NCCOCCOCC(=O)O; Aib = CC(C)(N)C(=O)O
The entries below are paired with their reported EC50/pM (0% HSA).

Binder	EC50/pM (0% HSA) (pM)
H[Aib]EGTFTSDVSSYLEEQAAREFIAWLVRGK([AEEA-AEEA-γGlu-Decanoyl(10-(4-HOOC-PhO))])K([AEEA-AEEA-γGlu-Decanoyl(10-(4-HOOC-PhO))]) [GLP-1 derivative of Example 3]	1.2
H[Aib]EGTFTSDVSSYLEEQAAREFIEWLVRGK([AEEA-AEEA-AEEA-AEEA-γGlu-Decanoyl(10-O(3-COOH-Ph))])K([AEEA-AEEA-AEEA-AEEA-γGlu-Decanoyl(10-O(3-COOH-Ph))]) [GLP-1 derivative of Example 28]	12
H[Aib]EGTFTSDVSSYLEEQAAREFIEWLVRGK([AEEA-AEEA-γGlu-Decanoyl(10-O(3-COOH-Ph))])K([AEEA-AEEA-γGlu-Decanoyl(10-O(3-COOH-Ph))]) [GLP-1 derivative of Example 27]	13
H[Aib]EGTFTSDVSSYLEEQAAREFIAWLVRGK([AEEA-AEEA-AEEA-AEEA-γGlu-C14 diacid])K([AEEA-AEEA-AEEA-AEEA-γGlu-C14 diacid]) [GLP-1 derivative of Example 20]	2.7
